test system: MCF10A; assay: one-nucleolus phenotype percent effect (relative to siNT 0% and siNOL11 100%); higher = more cells with one nucleolus (ribosome biogenesis inhibition); details: 20 nM; 72 h
# binarize one-nucleolus phenotype percent effect: threshold -10% inclusive, high side fulfilled, low side not fulfilled

Example cases with answers are listed next.
UCUGAAUAGAGUCUGAAGAGU [hsa-miR-4427]; not fulfilled
AGUUGCCAGGGCUGCCUUUGGU [hsa-miR-6501-5p]; fulfilled
GAGUGGGGCUUCGACCCUAACC [hsa-miR-1296-3p]; fulfilled
AAUGUUGGAAUCCUCGCUAGAG [hsa-miR-4781-3p]; fulfilled
AGCACACUGAGCGAGCGGAC [hsa-miR-8064]; fulfilled
ACUGUCACUUCUCUGCCCAUAG [hsa-miR-6773-3p]; fulfilled

Given the entry AAAGGAUUCUGCUGUCGGUCCCACU [hsa-miR-541-5p] , answer whether its one-nucleolus phenotype percent effect meets or surpasses -10%. fulfilled

Given the entry UGGGCUGCUGAGAAGGGGCA [hsa-miR-6829-5p] , answer whether its one-nucleolus phenotype percent effect meets or surpasses -10%. fulfilled

Given the entry AACAUCACUGCAAGUCUUAACA [hsa-miR-499b-3p] , answer whether its one-nucleolus phenotype percent effect meets or surpasses -10%. not fulfilled

Given the entry GCGGAGAGAGAAUGGGGAGC [hsa-miR-5739] , answer whether its one-nucleolus phenotype percent effect meets or surpasses -10%. not fulfilled

Given the entry GGGGUGGUCUGUUGUUG [hsa-miR-4483] , answer whether its one-nucleolus phenotype percent effect meets or surpasses -10%. not fulfilled
